Recorded values, source paper PMC11730611.

// reported log10 Kd per item
tested_on: T1, extROQ (Roquin, murine/human) (Mus musculus, UniProt Q4VGL6 89-404)
T1 sequence: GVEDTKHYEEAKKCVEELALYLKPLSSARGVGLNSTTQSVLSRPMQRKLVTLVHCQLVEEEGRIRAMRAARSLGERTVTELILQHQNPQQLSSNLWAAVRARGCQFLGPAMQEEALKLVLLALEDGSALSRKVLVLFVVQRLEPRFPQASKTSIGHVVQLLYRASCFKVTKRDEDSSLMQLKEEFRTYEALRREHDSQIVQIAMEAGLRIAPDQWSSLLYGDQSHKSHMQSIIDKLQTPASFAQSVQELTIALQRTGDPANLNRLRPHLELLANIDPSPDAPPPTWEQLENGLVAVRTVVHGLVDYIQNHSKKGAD
method_description: EMSA
observed_property: log10 Kd (log10 of the value in nM)

GCCUGCCAGUCCACACCGUUCUAGGUGCUGGACCCUGCUGGCUCUGGGC (structured_RNA) [MM 3'bulge] | 2.72
GCCUGCCAGUACCCUCCACACCGUUCUAGGUGCUGGGCUGGCUCUGGGC (structured_RNA) [MM (murine Ox40 ADE wt)] | 2.51
GCCUGCCAGUACCCUCCAUAAAGUUCUAUUUACUGGGCUGGCUCUGGGC (structured_RNA) [dapical] | 2.69
GCCGAGCCUGAGUUUAUACAGUCCUUUGUGC (structured_RNA) [CH (chicken putative ADE)] | 3.65
GGCCAACUCUGCACCGUUCUAGGUGCCGAUGGCU (structured_RNA) [HS (human Ox40 ADE wt)] | 2.59
GCCUGUAAGUACCCUCCACACCGUUCUAGGUGCUGGGCUUACUCUGGGC (structured_RNA) [dstem1] | 3.02
